assay: Oral bioavailability in rat; assay type: ADME, organism-based; settings: in vivo
*1 amine or outer side, *2 acyl side, *3 side chain or, on linkers, in order; H or OH if unused. Where a SMILES comes first, the peptide text is derived from it. [ ]: non-standard residue; d: D form. The star is where a group is joined. Pro(3R,4S-CMe2) = CC1(C)[C@@H]2[C@@H](C(=O)O)NC[C@@H]21; X1 = O=C(C(=O)[*:2])C(CC1CC1)N[*:1]; Phg = N[C@H](C(=O)O)c1ccccc1; Tle = CC(C)(C)[C@H](N)C(=O)O; Boc = CC(C)(C)OC(=O)*
This listing pairs molecules with measured bioavailability.
Units required after the number.

Past entries and their recorded results:
# molecule, bioavailability
measured = [
    ("CC(C)(C)NC(=O)N[C@H](C(=O)N1C[C@H]2[C@@H]([C@H]1C(=O)NC(CC1CCC1)C(=O)C(N)=O)C2(Cl)Cl)C(C)(C)C (some centres undefined)", "5%"),
    ("CC(C)(C)OC(=O)N[C@H](C(=O)N1C[C@H]2[C@@H]([C@H]1C(=O)NC(CC1CCC1)C(=O)C(N)=O)C2(Cl)Cl)C(C)(C)C (some centres undefined)", "12%"),
    ("CC(C)(C)OC(=O)N[C@H](C(=O)N1C[C@H]2[C@@H]([C@H]1C(=O)NC(CC1CC1)C(=O)C(N)=O)C2(Cl)Cl)C1CCCCC1 (some centres undefined)", "26%"),
]

Shifting focus to the molecule that follows.
# input For CN(C)C(=O)[C@@H](NC(=O)CNC(=O)C(=O)C(CC1CC1)NC(=O)[C@@H]1[C@@H]2[C@H](CN1C(=O)[C@@H](NC(=O)OC(C)(C)C)C(C)(C)C)C2(C)C)c1ccccc1 (stereo partly drawn) (Boc-[Tle][Pro(3R,4S-CMe2)][X1]G[Phg]-NMe2) , what is its reported bioavailability?
# output 4%
